cell viability listing for selected compounds.
Test system: HCI01 (cells of a triple-negative basal-like breast cancer xenograft);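 further: cells dissociated from PDX tumors propagated in female NSG mouse mammary fat pads, vehicle control 0.1% DMSO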
Assay: cell viability (% of vehicle); higher = less cytotoxic
Settings: 1 µM; 72 h
ENDPOINT: cell viability

INSERT INTO results (compound, endpoint_value) VALUES
  ('CC1=C(C(=O)OC(C)C)C(c2cccc([N+](=O)[O-])c2)C(C(=O)OC2CN(C(c3ccccc3)c3ccccc3)C2)=C(N)N1 (centres undefined)', 93.6),
  ('CN(C(=O)CN(CCO)CC(=O)N(C)C(C)(C)Cc1ccccc1)C(C)(C)Cc1ccccc1', 87.3),
  ('CN(C)CC=CC(=O)Nc1cc2c(Nc3ccc(F)c(Cl)c3)ncnc2cc1OC1CCOC1.O=C(O)C=CC(=O)O.O=C(O)C=CC(=O)O (centres undefined) [Afatinib dimaleate]', 85.2),
  ('Cc1cccc(CN2CCN(C(c3ccccc3)c3ccc(Cl)cc3)CC2)c1.Cl.Cl (centres undefined) [Meclizine 2HCl]', 136);
